Reference for the values: patent EP0217372A2

Tested on: Isoliertes Meerschweinchenherz
assay.name: Isolated guinea pig heart (Langendorff method)
Design: species or system Meerschweinchen
study.conditions: Cavia porcellus; Dosis 10 µg injected into the aorta; read-out: % Zunahme der Chronotropen Wirkung
property.measured: activation at 0.01 mg (%)
Answers are plain numbers, in %.

Example results:
molecule	target.of.assay	property.measured	unit.abbrev	value.observed
C=C[C@@]1(C)CC(=O)[C@]2(O)[C@@]3(C)[C@@H](O)CCC(C)(C)[C@@H]3[C@H](O)[C@H](OC(=O)CN3CCCCC3)[C@@]2(C)O1	Isoliertes Meerschweinchenherz	activation at 0.01 mg	%	1
C=C[C@@]1(C)CC(=O)[C@]2(O)[C@@]3(C)[C@@H](O)CCC(C)(C)[C@@H]3[C@H](OC(=O)CN3CCCCC3)[C@H](O)[C@@]2(C)O1	Isoliertes Meerschweinchenherz	activation at 0.01 mg	%	27
C=C[C@@]1(C)CC(=O)[C@]2(O)[C@@]3(C)[C@@H](O)CCC(C)(C)[C@@H]3[C@H](OC(=O)C(C)N3CCOCC3)[C@H](O)[C@@]2(C)O1 (stereo partly drawn)	Isoliertes Meerschweinchenherz	activation at 0.01 mg	%	20

Please give activation at 0.01 mg for each item listed below.
1. C=C[C@@]1(C)CC(=O)[C@]2(O)[C@@]3(C)[C@@H](O)CCC(C)(C)[C@@H]3[C@H](O)[C@H](OC(=O)CN3CCCC3)[C@@]2(C)O1
2. C=C[C@@]1(C)CC(=O)[C@]2(O)[C@@]3(C)[C@@H](O)CCC(C)(C)[C@@H]3[C@H](O)[C@H](OC(=O)C(C)N3CCOCC3)[C@@]2(C)O1 (stereo partly drawn)
3. C=C[C@@]1(C)CC(=O)[C@]2(O)[C@@]3(C)[C@@H](O)CCC(C)(C)[C@@H]3[C@H](O)[C@H](OC(=O)CN3CCOCC3)[C@@]2(C)O1

24
20
35

* * *

Tested on: Isoliertes Meerschweinchenherz
assay.name: Isolated guinea pig heart (Langendorff method)
Set-up: species or system Meerschweinchen
study.conditions: Cavia porcellus; Dosis 10 µg injected into the aorta; read-out: % Zunahme der Koronardurchblutung
Provide the reported activation at 0.01 mg of each item.
Give bare numbers, in %.

Please give activation at 0.01 mg for each item listed below.
1. C=C[C@@]1(C)CC(=O)[C@]2(O)[C@@]3(C)[C@@H](O)CCC(C)(C)[C@@H]3[C@H](OC(=O)C(C)N3CCOCC3)[C@H](O)[C@@]2(C)O1 (stereo partly drawn)
2. C=C[C@@]1(C)CC(=O)[C@]2(O)[C@@]3(C)[C@@H](O)CCC(C)(C)[C@@H]3[C@H](O)[C@H](OC(=O)CN3CCCCC3)[C@@]2(C)O1
3. C=C[C@@]1(C)CC(=O)[C@]2(O)[C@@]3(C)[C@@H](O)CCC(C)(C)[C@@H]3[C@H](O)[C@H](OC(=O)CN3CCOCC3)[C@@]2(C)O1
4. C=C[C@@]1(C)CC(=O)[C@]2(O)[C@@]3(C)[C@@H](O)CCC(C)(C)[C@@H]3[C@H](O)[C@H](OC(=O)C(C)N3CCOCC3)[C@@]2(C)O1 (stereo partly drawn) [the 1st table, row 7]
5. C=C[C@@]1(C)CC(=O)[C@]2(O)[C@@]3(C)[C@@H](O)CCC(C)(C)[C@@H]3[C@H](O)[C@H](OC(=O)CN3CCCC3)[C@@]2(C)O1

11
31
100
-5
57

Field request: activation at 0.01 mg | item: "C=C[C@@]1(C)CC(=O)[C@]2(O)[C@@]3(C)[C@@H](O)CCC(C)(C)[C@@H]3[C@H](OC(=O)CN3CCCCC3)[C@H](O)[C@@]2(C)O1"
40
